System: HaCat
Assay: Cytotoxic Profiling of Annotated Libraries Using Quantitative High-Throughput Screening (AID 1296008); also: % is scaled to controls: 0 for no effect and ±100 for the full control effect; nearly all actives have a fitted effect of over 60% in size
Details: Five cell lines viability, CellTiter-Glo ATP luminescence, 48-72 h; hits give low values
Inconclusive results are not listed.
readout.name: max response (%)
Reply numerically in %, unit not repeated.

Exercise: Form entry - test system: HaCat; read-out: max response; molecule: COc1cc(C(=O)NC2CCN(C)CC2)ccc1Nc1ncc2c(n1)N(C1CCCC1)CCC(=O)N2C(C)C
Key: -42.1

Exercise: What value of max response on HaCat does O=c1ccn([C@@H]2O[C@H](CO)[C@H](O)[C@@H]2F)c(=O)[nH]1 have?
Key: 4.18

Exercise: Value wanted: max response (HaCat) of entry CN(CC(=O)N(Cc1ccc(C2CCCCC2)cc1)c1ccc(C(=O)O)c(O)c1)S(=O)(=O)c1c(F)c(F)c(F)c(F)c1F
Key: -3.31

Exercise: Give recorded max response with HaCat for the following molecule: C#C[C@]1(O)CC[C@@H]2[C@@H]3CCC4=CC(=O)CC[C@@H]4[C@H]3CC[C@@]21CC
Key: -5.66

----------
Experiment: qHTS of pediatric cancer cell lines to identify multiple opportunities for drug repurposing: Primary screen for control Hh wild type fibroblast cells (AID 1347106); also: nearly all actives have a fitted effect of over 55% in size
Settings: Hh wild-type fibroblast viability, CellTiter-Glo luminescence, 48 h; series mostly up to 46 µM
Results filed as inconclusive are left out. Calls of active or inactive are those of the source. Calls come from the whole dose curve; as a rule, active = well fitted cell-killing curve with a large enough effect; inconclusive = small, poorly fitted or top-dose-only effect; inactive = flat fitted curve, though single readings scatter.
In this exercise, the only acceptable responses are true (1) (active), false (0) (inactive)

Exercise: How was Cc1ncc(-c2ccnc(Nc3ccc(S(C)(=O)=O)cc3)n2)n1C(C)C classified in this test?
Key: false (0)

Exercise: // param item: Cn1cc(C2=C(c3c4n(c5ccccc35)CCC(CN)C4)C(=O)NC2=O)c2ccccc21 (stereo unspecified) ; yields the recorded call
Key: false (0)

Exercise: Fill in: this test's call for CCc1cc(C(C)=NOCc2ccc(C3CCCCC3)c(C(F)(F)F)c2)ccc1CN1CC(C(=O)O)C1 is ___
Key: false (0)

Exercise: Hi, sorry to bother you, what did the test record for CC(=O)O[C@@]12CO[C@H]1C[C@H](O)[C@@]1(C)C(=O)[C@H](O)C3=C(C)[C@@H](OC(=O)C(O)[C@@H](NC(=O)OC(C)(C)C)c4ccccc4)C[C@@](O)([C@@H](OC(=O)c4ccccc4)[C@@H]21)C3(C)C (stereo partly specified) ?
Key: false (0)

Exercise: Status in this test for C=C(C)[C@@H]1CC[C@]2(C(=O)O)CC[C@]3(C)[C@H](CC[C@@H]4[C@@]5(C)CC[C@H](O)C(C)(C)[C@@H]5CC[C@]43C)[C@@H]12 ?
Key: false (0)

Exercise: Lab log entry: Cc1[nH]c(C=C2C(=O)Nc3ccccc32)c(C)c1CCC(=O)O — outcome as called in the assay?
Key: false (0)

Exercise: Recorded test call requested for C[C@H](CCC(=O)O)[C@H]1CCC2C3C[C@H](O)[C@@H]4C[C@H](O)CC[C@]4(C)C3CC[C@@]21C (stereo partly specified)
Key: false (0)

Exercise: Recorded test outcome, item CC(=O)NC(CS)C(=O)O (stereo unspecified)
Key: false (0)

Exercise: Just curious, what result did CC[C@H](CC[C@@H](C)[C@H]1CC[C@H]2[C@@H]3CC=C4C[C@@H](O)CC[C@]4(C)[C@@H]3CC[C@]12C)C(C)C get here?
Key: false (0)

Exercise: I would be grateful if you could indicate the recorded call for C[C@@H]1[C@H](C)CC[C@]2(C(=O)O)CC[C@]3(C)C(=CC[C@@H]4[C@@]5(C)C[C@@H](O)[C@H](O)[C@@](C)(CO)[C@H]5CC[C@]43C)[C@@H]12 .
Key: false (0)

Exercise: Status in this test for C[C@H](CCC(=O)O)[C@H]1CC[C@H]2[C@@H]3[C@H](O)C[C@@H]4C[C@H](O)CC[C@]4(C)[C@@H]3CC[C@]12C ?
Key: false (0)

Exercise: Can you look up the reported call for CN[C@H]1[C@@H](O)[C@@H]2O[C@@H]3O[C@H](C)CC(=O)[C@]3(O)O[C@@H]2[C@@H](NC)[C@H]1O for me?
Key: true (1)

Exercise: Would you mind telling me which call this test gave CCN(CC)CCNC(=O)c1c(C)[nH]c(C=C2C(=O)Nc3ccc(F)cc32)c1C ?
Key: true (1)

Exercise: For CC(C)(O)Cn1c(NC(=O)c2ccc(-c3cn[nH]c3)s2)nc2cc(CN3CCOCC3)ccc21 , what call appears in the results of this test?
Key: true (1)

Exercise: What did this assay record as the result for C#CCC(Cc1cnc2nc(N)nc(N)c2n1)c1ccc(C(=O)N[C@@H](CCC(=O)O)C(=O)O)cc1 (stereo partly specified) ?
Key: false (0)

Exercise: Hi team, can someone confirm the assay call for CC(C)N(CC[C@H](c1ccccc1)c1cc(CO)ccc1O)C(C)C ?
Key: false (0)
